Test: mn = molality of the nth substance listed, in mol/kg
Conditions: 308.15 K; 101 kPa; Liquid; Vibrating tube method; m1 = 0.3
Numbers after ± are expanded uncertainties.
Endpoint label: mass density

O=P([O-])([O-])[O-].[K+].[K+].[K+] [tripotassium phosphate] + O: 1054.87 ± 0.23 kg/m3
O=P([O-])([O-])O.[Na+].[Na+] [disodium hydrogen phosphate] + O: 1035.61 ± 0.13 kg/m3
O=P([O-])(O)O.[Na+] [sodium dihydrogen phosphate] + O: 1021.13 ± 0.11 kg/m3
O=P([O-])([O-])[O-].[Na+].[Na+].[Na+] [trisodium phosphate] + O: 1049.48 ± 0.21 kg/m3
O=P([O-])(O)O.[K+] [monopotassium phosphate] + O: 1023.58 ± 0.13 kg/m3
O=P([O-])([O-])O.[K+].[K+] [dipotassium hydrogen phosphate] + O: 1038.39 ± 0.15 kg/m3
O=P([O-])(O)O.[Li+] [lithium dihydrogen phosphate] + O: 1016.05 ± 0.096 kg/m3
O=P(O)(O)O [phosphoric acid] + O: 1008.27 ± 0.072 kg/m3

###

refractive index for assorted compounds
Test: refractive index (Na D-line) (dimensionless); mn = molality of the nth substance listed, in mol/kg
Settings: 308.15 K; 101 kPa; Liquid; Standard Abbe refractometry; m1 = 0.1
Endpoint label: refractive index

O=P([O-])([O-])O.[Na+].[Na+] [disodium hydrogen phosphate] + O: 1.3344
O=P([O-])(O)O.[Na+] [sodium dihydrogen phosphate] + O: 1.3335
O=P([O-])([O-])[O-].[Na+].[Na+].[Na+] [trisodium phosphate] + O: 1.3353
O=P([O-])([O-])[O-].[K+].[K+].[K+] [tripotassium phosphate] + O: 1.3351
O=P([O-])(O)O.[K+] [monopotassium phosphate] + O: 1.333
O=P(O)(O)O [phosphoric acid] + O: 1.3323
O=P([O-])(O)O.[Li+] [lithium dihydrogen phosphate] + O: 1.3327
O=P([O-])([O-])O.[K+].[K+] [dipotassium hydrogen phosphate] + O: 1.334

###

Test: mn = molality of the nth substance listed, in mol/kg
Conditions: 298.15 K; 101 kPa; Liquid; Vibrating tube method; m1 = 0.7
Examples of compounds with documented mass density follow.
Endpoint label: mass density (kg/m3)

O=P([O-])(O)O.[Na+] [sodium dihydrogen phosphate] + O: 1062.08
O=P([O-])([O-])O.[Na+].[Na+] [disodium hydrogen phosphate] + O: 1096.95
O=P([O-])([O-])O.[K+].[K+] [dipotassium hydrogen phosphate] + O: 1103.77
O=P(O)(O)O [phosphoric acid] + O: 1030.49
O=P([O-])(O)O.[Li+] [lithium dihydrogen phosphate] + O: 1048.96

###

Below, each entry is listed with its recorded speed of sound.
Experiment: mn = molality of the nth substance listed, in mol/kg
Conditions: 303.15 K; 101 kPa; Liquid; Sing-around technique in a fixed-path interferometer; m1 = 0.5
Endpoint label: speed of sound (m/s)

O=P(O)(O)O [phosphoric acid] + O: 1511.6
O=P([O-])(O)O.[Li+] [lithium dihydrogen phosphate] + O: 1555
O=P([O-])([O-])[O-].[Na+].[Na+].[Na+] [trisodium phosphate] + O: 1619.9
O=P([O-])([O-])O.[Na+].[Na+] [disodium hydrogen phosphate] + O: 1598.6
O=P([O-])([O-])O.[K+].[K+] [dipotassium hydrogen phosphate] + O: 1584.6
O=P([O-])(O)O.[Na+] [sodium dihydrogen phosphate] + O: 1558.2
O=P([O-])([O-])[O-].[K+].[K+].[K+] [tripotassium phosphate] + O: 1616.1
O=P([O-])(O)O.[K+] [monopotassium phosphate] + O: 1553.2
